# protocol.notes: Cytotoxicity by Propidium Iodide staining
readout.label: CC50

Here's what some known entries look like.
molecule: O=C1O/C(=C\c2ccc(Cl)cc2)c2cc(Cl)c(Cl)cc21
CC50: > 154 µM
--
molecule: O=C1O/C(=C\c2ccc(Cl)cc2)c2ccccc21
CC50: > 195 µM
--
molecule: Cn1nc(Cc2ccccc2)c2ccccc2c1=O
CC50: > 156 µM
--
molecule: Cc1ccc2c(c1)/C(=C/c1ccccc1Cl)OC2=O
CC50: > 185 µM
--
molecule: OC1(Cc2ccc(Cl)cc2)c2ccccc2C2=NCCN21 (stereo unspecified)
CC50: > 168 µM

Now for another entry.
Value of measured CC50 for the entry COc1ccc(CC2(O)c3ccccc3C3=NCCCN32)cc1 (stereo unspecified) : > 162 µM
